In this section, each of the compounds is paired with its reported EC50.
Tested on: A/Udorn/72 (H3N2) virus
procedure.summary: Plaque assay in MDCK cells: EC50 by reduction of plaque number
Assay type: cell-based, influenza virus
experimental.parameters: MDCK

- COc1cc(OC)cc(-c2cc(CCCOC(C)=O)c(/C=C3\SC(=S)N(C4C5CC6CC(C5)CC4C6)C3=O)o2)c1 (stereo not shown): < 100 nM
- Cn1c(/C=C2\SC(=S)N(C3CC4CCC3C4)C2=O)cc(C#CCCCOC(=O)[C@@H]2CC(=O)N(C(C)(C)C)C(=O)N2)c1-c1ccc(Cl)cc1 (stereo partly shown): 100 to 250 nM

Now look at this one.
Form: compound = O=C1/C(=C/c2sc(-c3cccc(Cl)c3)cc2C#CCCCO)SC(=S)N1C1CC2CCC1C2 (stereo not shown) ; EC50 = < 100 nM

----------
Tested on: A/Udorn/72 (H3N2) virus
procedure.summary: Plaque assay in MDCK cells: EC50 by reduction of plaque number
Assay type: cell-based, influenza virus
experimental.parameters: MDCK
pEC50: −log10 of the molar value.
# pEC50 annotations

In the examples that follow, each entry is paired with its recorded pEC50.
• N=C(N)NCCCc1cc(-c2ccc(Cl)cc2)oc1/C=C1\SC(=S)N(C2CC3CCC2C3)C1=O (centres unmarked) = > 7.00
• O=C1/C(=C/c2oc(-c3ccc(Cl)cc3)cc2CCCN2CCOCC2)SC(=S)N1C1C2CC3CC(C2)CC1C3 (centres unmarked) = > 7.00
• O=C1/C(=C/c2oc(-c3ccc(F)cc3)cc2CCCN2CCNCC2)SC(=S)N1C1C2CC3CC(C2)CC1C3 (centres unmarked) = > 7.00
• COc1cc(OC)cc(-c2cc(CCCN3CCOCC3)c(/C=C3\SC(=S)N(C4C5CC6CC(C5)CC4C6)C3=O)o2)c1 (centres unmarked) = > 7.00

As a next step, examine the compound that follows.
Input COCOc1cc(=O)oc2ccc(-c3ccc(/C=C4\SC(=S)N(C5CC6CCC5C6)C4=O)o3)cc12 (centres unmarked) . Output pEC50: 6.00 to 6.60

----------
Tested on: A/Udorn/72 (H3N2) virus
procedure.summary: Plaque assay in MDCK cells: EC50 by reduction of plaque number
Type: cell-based, influenza virus
experimental.parameters: MDCK
endpoint: EC50

Take a look at these entries with their results.
• COc1cccc(-c2cc(CCCO)c(/C=C3\SC(=S)N(C4CC5CCC4C5)C3=O)n2C)c1 (stereo not drawn) = 250 to 1000 nM
• COc1cc(OC)cc(-c2cc(CCCN3CCNCC3)c(/C=C3\SC(=S)N(C4C5CC6CC(C5)CC4C6)C3=O)o2)c1 (stereo not drawn) = < 100 nM
• COc1ccc(-c2cc(CCCCCO)c(/C=C3\SC(=S)N(C4CC5CCC4C5)C3=O)o2)cc1 (stereo not drawn) = < 100 nM
• COc1ccc2c(O)c(-c3ccc(/C=C4\SC(=S)N(C5CC6CCC5C6)C4=O)o3)c(=O)oc2c1 (stereo not drawn) = 100 to 250 nM

Per the records, this molecule ( COc1ccc(-c2ccc(/C=C3\SC(=S)N(C4CC5CCC4C5)C3=O)o2)cc1OCC(=O)N1CCC[C@H]1C(=O)O (stereo partly drawn) ) has EC50 equal to < 100 nM

What the record says about COc1ccc(-c2ccc(/C=C3\SC(=S)N(C4CC5CCC4C5)C3=O)o2)cc1C(=O)O (stereo not drawn) : EC50 is < 100 nM

Measured EC50 of O=C1/C(=C/c2oc(-c3ccc(Cl)cc3)cc2CCCCCN2CCNCC2)SC(=S)N1C1CC2CCC1C2 (stereo not drawn) : < 100 nM

Reported EC50 ( COc1cccc(-c2cc(CCCCCO)c(/C=C3\SC(=S)N(C4CC5CCC4C5)C3=O)n2C)c1 (stereo not drawn) ) = > 1000 nM

Reported EC50 for COc1cc(OC)cc(-c2cc(CCCN)c(/C=C3\SC(=S)N(C4C5CC6CC(C5)CC4C6)C3=O)o2)c1 (stereo not drawn) was < 100 nM

----------
Listing: EC50 of selected molecules
Test system: A/Udorn/72 (H3N2) virus
procedure.summary: Plaque assay in MDCK cells: EC50 by reduction of plaque number
Format: cell-based, influenza virus
experimental.parameters: MDCK

• O=C1/C(=C/c2ccco2)SC(=S)N1C1CCCCCC1 = 0.25 to 1 µM
• COc1cc(OCC(=O)N2CCC[C@H]2C(=O)O)cc(-c2ccc(/C=C3\SC(=S)N(C4CC5CCC4C5)C3=O)o2)c1 (stereo partly shown) = < 0.1 µM
• COc1cc(OC)cc(-c2cc(CCCC(C(=O)O)C(=O)O)c(/C=C3\SC(=S)N(C4CC5CCC4C5)C3=O)o2)c1 (stereo not shown) = < 0.1 µM

Input O=C1/C(=C/c2oc(-c3cccc(Cl)c3)cc2CCCCCO)SC(=S)N1C1C2CC3CC(C2)CC1C3 (stereo not shown) . Output EC50: < 0.1 µM
